meta.source: patent US8048862B2

# System: hepatitis C replicon
# test.description: hepatitis C replicon EC50
# Type: cell-based
# particulars: Hepatitis C virus; Table 2; hepatitis C replicon; read-out: EC50
# EC50 annotations

[[record]]
compound_structure_string = "O=C1N[C@]2(C(=O)NS(=O)(=O)C3CC3)C[C@H]2/C=C\\CCCCC[C@H](Nc2ccccc2)C(=O)N2C[C@H](Oc3nc4ccccc4s3)C[C@@H]12"
measure_name = "EC50"
test_result = "0.01 to 0.075 µM"

[[record]]
compound_structure_string = "CC1(S(=O)(=O)NC(=O)[C@@]23C[C@H]2/C=C\\CCCCC[C@H](Nc2cccc(F)c2)C(=O)N2C[C@H](Oc4nccc5ccccc45)C[C@H]2C(=O)N3)CC1"
measure_name = "EC50"
test_result = "0.01 to 0.075 µM"

[[record]]
compound_structure_string = "CC1(S(=O)(=O)NC(=O)[C@@]23C[C@H]2/C=C\\CCCCC[C@H](Nc2ccc(Cl)c(Cl)c2)C(=O)N2C[C@H](Oc4nc5ccccc5s4)C[C@H]2C(=O)N3)CC1"
measure_name = "EC50"
test_result = "0.075 to 0.5 µM"

[[record]]
compound_structure_string = "CC(C)n1c(O[C@@H]2C[C@H]3C(=O)N[C@]4(C(=O)NS(=O)(=O)C5CC5)C[C@H]4/C=C\\CCCCC[C@H](Nc4cc(F)cc(C(F)(F)F)c4)C(=O)N3C2)nc2ccccc21"
measure_name = "EC50"
test_result = "0.01 to 0.075 µM"


# input State, in one line, measured EC50 of `COc1ccc2c(O[C@@H]3C[C@H]4C(=O)N[C@]5(C(=O)NS(=O)(=O)C6CC6)C[C@H]5/C=C\CCCCC[C@H](Nc5ccc(F)c(C(F)(F)F)c5)C(=O)N4C3)cc(-c3ccccc3)nc2c1`
# output < 0.01 µM
